# Measured target: pooled human IgG (human IgG1, 2, 3 and 4)
Property label: Enzyme Activity Endpoint Assay (purified): Fc (ng/µL)

[[record]]
protein = "PRT-415 (protein) MTITSVWTKGVTPPTPEDFRYNNEDVLHAPYVANQGWYDITKTFDGKDNLLCGAATAGNMLHWWFDQNKEEIERYLKKHPEKQKIIFNNQELFDVKAAIDTKDSQTNSKLFNYFLDKAFPNLSARQLGVMPDLVLDMFINGYYLNLGKTQSTDVNRPYQDKDKRGGIFDAVFTRGDQTTLLTARHDLKNKGLNEISDLIKQELTEGKALALSHTYANVRINHVINLWGADFDAEGNLIAIYVTDSDANASIGMKKYFVGVNANGKVAISAKKIEGDNIGAQVLGLFTLSTGQDIWQKLS"
unit_string = "ng/µL"
assay_result = 225

